Test system: MCF-7 and HepG2 cell lines
testDetails: In vitro anti-proliferative activity (MTT assay), stated over both cell lines
Format: cell-based
measurementSetup: Homo sapiens, MTT; range stated for a group of compounds and both cell lines; read-out: IC50 values ranging over the two cell lines (MCF-7 and HepG2)
pIC50: −log10 of the molar value.
measurementName: pIC50

Worked examples follow.
[[record]]
compound = "O=C(CSc1nnc2c3nncn3c3ccccc3n12)Nc1ccc(C(=O)Nc2ccc([N+](=O)[O-])cc2O)cc1 [Compound 23n]"
measurementname = "pIC50"
recordedvalue = "4.71 to 5.19"

[[record]]
compound = "CCNC(=O)c1ccc(NC(=O)CSc2nnc3c4nncn4c4ccccc4n23)cc1 [Compound 23a]"
measurementname = "pIC50"
recordedvalue = "4.71 to 5.19"

[[record]]
compound = "CC(C)(C)NC(=O)c1ccc(NC(=O)CSc2nnc3c4nncn4c4ccccc4n23)cc1 [Compound 23d]"
measurementname = "pIC50"
recordedvalue = "4.32 to 4.82"

[[record]]
compound = "O=C(CSc1nnc2c3nncn3c3ccccc3n12)Nc1ccc(C(=O)Nc2ccc(O)cc2)cc1 [Compound 23m]"
measurementname = "pIC50"
recordedvalue = "4.32 to 4.82"

[[record]]
compound = "O=C(CSc1nnc2c3nncn3c3ccccc3n12)Nc1ccc(C(=O)NNC(=O)c2ccccc2Cl)cc1 [Compound 24a]"
measurementname = "pIC50"
recordedvalue = "4.32 to 4.82"

[[record]]
compound = "O=C(CSc1nnc2c3nncn3c3ccccc3n12)Nc1ccc(C(=O)NNC(=O)c2ccccc2O)cc1 [Compound 24c]"
measurementname = "pIC50"
recordedvalue = "4.32 to 4.82"


Note: attention shifts to another entry.
// sample O=C(CSc1nnc2c3nncn3c3ccccc3n12)Nc1ccc(C(=O)NNC(=O)c2cccc(Cl)c2)cc1 [Compound 24b] , its pIC50 was 4.32 to 4.82

----------
System: HepG2
testDetails: In vitro anti-proliferative activity (MTT assay), HepG2
Type: cell-based, human
measurementSetup: Homo sapiens, HepG2; MTT, 24 h treatment; mean ± SD of three separate experiments; read-out: IC50 (µM) HepG2
Here, each record is paired with measured IC50 data.
Number first, unit second: that is the form wanted.

[[record]]
compound = "O=C(CSc1nnc2c3nncn3c3ccccc3n12)Nc1ccc(C(=O)NNC(=O)c2ccccc2O)cc1 [Compound 24c]"
testsystem = "HepG2"
measurementname = "IC50"
recordedvalue = "29.8 µM"

[[record]]
compound = "CNC(=O)c1cc(Oc2ccc(NC(=O)Nc3ccc(Cl)c(C(F)(F)F)c3)cc2)ccn1 [Sorafenib, sorafenib, reference compound]"
testsystem = "HepG2"
measurementname = "IC50"
recordedvalue = "2.17 µM"

[[record]]
compound = "O=C(CSc1nnc2c3nncn3c3ccccc3n12)Nc1ccc(C(=O)NC2CCCC2)cc1 [Compound 23e]"
testsystem = "HepG2"
measurementname = "IC50"
recordedvalue = "74.8 µM"

[[record]]
compound = "CC(C)(C)NC(=O)c1ccc(NC(=O)CSc2nnc3c4nncn4c4ccccc4n23)cc1 [Compound 23d]"
testsystem = "HepG2"
measurementname = "IC50"
recordedvalue = "17.5 µM"

[[record]]
compound = "CCC(C)NC(=O)c1ccc(NC(=O)CSc2nnc3c4nncn4c4ccccc4n23)cc1 (centres unmarked) [Compound 23c]"
testsystem = "HepG2"
measurementname = "IC50"
recordedvalue = "69.8 µM"

[[record]]
compound = "CCCCNC(=O)c1ccc(NC(=O)CSc2nnc3c4nncn4c4ccccc4n23)cc1 [Compound 23b]"
testsystem = "HepG2"
measurementname = "IC50"
recordedvalue = "69.1 µM"


So the reported IC50 for O=C(CSc1nnc2c3nncn3c3ccccc3n12)Nc1ccc(C(=O)NC2CCCCC2)cc1 [Compound 23f] , on HepG2, turned out to be 70.4 µM

So the reported IC50 for O=C(CSc1nnc2c3nncn3c3ccccc3n12)Nc1ccc(C(=O)Nc2ccc(F)cc2)cc1 [Compound 23k] , on HepG2, turned out to be 71.8 µM
